- Test system: AncSZ;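 further: 11-residue human phosphosite peptides and single-mutation variants displayed on the E. coli surface, counted by deep sequencing, each peptide's frequency after selection divided by its frequency in the unselected input library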;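 further: frequency after pTyr selection over input frequency; kinase dosed for 20-30% of maximal phosphorylation in three min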
- Test Description: phosphorylation enrichment, bacterial display (enrichment ratio); higher = better substrate or ligand; peptides without Tyr show the background
I'd appreciate it if you could supply phosphorylation enrichment values for the items below.

Give recorded phosphorylation enrichment. CLAKMYYSAVD [CP_Y539]
1.14

Determine its reported phosphorylation enrichment: TTGGFYSYGGG [KRT24_Y120_A115T]
1.03

Identify measured phosphorylation enrichment corresponding to MASISYDFCRV [BST2_Y6_T4I_YF]
1.24

Kindly indicate its recorded phosphorylation enrichment. Item: MSFDRYMAVCH [OR2A5_Y123_I126V_YF]
1.09

Supply reported phosphorylation enrichment belonging to this sequence: MARDIYRASYY [ALK_Y1278]
0.685

Report measured phosphorylation enrichment; entry is RLVTRYIFNRE [HLA-DQB1_Y62_Y58L_YF]
0.639

Given GHLYAYNWISI [BEST1_Y227_D228N] , respond with its phosphorylation enrichment.
1.71

Tell me its phosphorylation enrichment given QRDSSYYWEIE [RAF1_Y340] as the entry.
1.3

Using the record for SIKDKYVTAVF [KCNH2_Y611_L615V_YF] , state its measured phosphorylation enrichment.
0.667

Specify reported phosphorylation enrichment for the sequence shown: ADNQRYAFMPL [TMEM87B_Y460_N456D]
0.728

Look up and state reported phosphorylation enrichment for VVSMNYRVGAL [BCHE_Y174]
0.703

Answer with the recorded phosphorylation enrichment for the sequence listed here: ELETLYKKAVK [CC2D2A_Y381]
0.702

Name the recorded phosphorylation enrichment of the item GILDVYIFLGP [GAA_Y340] in your answer.
1.27

Tell me its phosphorylation enrichment given TFWKKYCTFWK [CCDC70_Y125_R126C] as the entry.
0.966

###

- Test System: SHP2-C SH2;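 further: peptide library displayed on the E. coli surface as eCPX fusions, selected cells deep-sequenced, score is each peptide's frequency after selection divided by its frequency in the input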
- Test Description: SH2 binding enrichment of the phosphorylated peptide, bacterial display (enrichment ratio); higher = better substrate or ligand; peptides without Tyr show the background
Threshold rule: SH2 binding enrichment greater than or equal to 0.6 is true (1); below that, false (0).

Exam item: decide whether the reported SH2 binding enrichment for DLVRPYVHKIL [SF3B1_Y570] is at least 0.6.
true (1)

API: above_or_equal(metric=SH2 binding enrichment, cutoff=0.6) for item GRSTCYWPRPR [GAGE12J_Y10_Y9C]
true (1)

hey, is SH2 binding enrichment for this one >= 0.6? QDIMAYRSREV [BCL6_Y157_G159S]
true (1)

Exam item: decide whether the reported SH2 binding enrichment for DENWFYTQAAS [RPS19_Y54_R56Q] is at least 0.6.
true (1)

Determine whether measured SH2 binding enrichment meets or exceeds 0.6 for ILGRYYETGSI [PAX2_Y73]
true (1)

Identify whether the reported SH2 binding enrichment of the following sequence is 0.6 or greater: DISEPYEVYRI [IRF8_Y107_K108E]
false (0)

Is reported SH2 binding enrichment greater than or equal to 0.6 here: DDEENYENVPR [FCRL3_Y722]
true (1)

In plain terms: is recorded SH2 binding enrichment at least 0.6 for TVLEPYADPYY [ZC3H18_Y367] ?
false (0)

State whether the measured SH2 binding enrichment reaches 0.6, counting equality as reaching it, for NGRTGYVLQPE [PLCG2_Y1036]
true (1)

SH2 binding enrichment >= 0.6 for PTTKSYFPHFD [HBA1_Y43_T42S] ?
true (1)

Is the recorded value of SH2 binding enrichment equal to or greater than 0.6 for this sequence? SKLTIYDGRPS [MTM1_Y277_A279G]
true (1)

State whether the measured SH2 binding enrichment reaches 0.6, counting equality as reaching it, for WHHTFYNEPRV [ACTA1_Y93_L96P]
true (1)

Identify whether the reported SH2 binding enrichment of the following sequence is 0.6 or greater: TIQIMFGCDVG [HLA-A_Y123_Y123F]
true (1)

Test whether the sequence IGMSSYVMLAS [GGCX_Y301_F299S] records SH2 binding enrichment of 0.6 or higher.
true (1)

Assess whether reported SH2 binding enrichment for GTTIHYNYMCN [TP53_Y234_C229G] sits at 0.6 or higher.
true (1)

Can WQQQSYLDFGI [CTNNB1_Y30_S33F] be said to have SH2 binding enrichment at or above 0.6?
true (1)

Evaluate TYGNLYGSRKQ [YIPF7_Y59_A54T] : SH2 binding enrichment at minimum 0.6?
true (1)

Given GVIRHYVVCST [BTK_Y334] , state whether its SH2 binding enrichment is at least 0.6.
false (0)

SH2 binding enrichment >= 0.6 for KTSGNYLPVTG [WDR19_Y28_A30P] ?
true (1)

Textbook exercise: given the entry FTNRSYDLDYD [MYC_Y12_N11S] , state whether its SH2 binding enrichment is greater than or equal to 0.6.
false (0)

Given LVMFIYDIFGM [SCN1A_Y1684_A1685D] , state whether its SH2 binding enrichment is at least 0.6.
true (1)

Hello, I need to know if GPGSGYTNIMR [PKLR_Y564_R559G] has measured SH2 binding enrichment not below 0.6. Thanks!
true (1)

Entry HSFQCYGQNEA [ENTPD3_Y262_R264Q] : is its SH2 binding enrichment no less than 0.6?
true (1)

Check if SH2 binding enrichment >= 0.6 (inclusive). Item: YSMGCYEISLG [HMGCL_Y198]
true (1)

SH2 binding enrichment >= 0.6 for RLLVLYPWTQR [HBB_Y36_V35L] ?
true (1)

Dear colleague, could you confirm whether GNLLIYTDFGK [HGD_Y166_E168D] has SH2 binding enrichment at or above 0.6?
true (1)

Entry FLTQHYDAIPQ [ANG_Y38_K41I] : is its SH2 binding enrichment no less than 0.6?
true (1)

Confirm if SH2 binding enrichment reported for the sequence FLQTDDTSQVS [FRMPD1_Y846_Y846D] is 0.6 or above.
true (1)

Please tell me: is the sequence KPIETYFSKNF [PLP1_Y50_L46P_YF] at or over 0.6 in terms of SH2 binding enrichment?
false (0)

Can YDGKDYIALKE [HLA-A_Y147_N151K] be said to have SH2 binding enrichment at or above 0.6?
true (1)

Check the entry QMEKICTQQIQ [CCNB1IP1_Y125_Y125C] : does SH2 binding enrichment equal or exceed 0.6?
false (0)

Test whether the sequence APTSGYQEFVH [IL4R_Y575] records SH2 binding enrichment of 0.6 or higher.
true (1)

Does the sequence KKFFSYAWPFF [BRDT_Y291_H288Y_YF] have recorded SH2 binding enrichment that is 0.6 or more?
true (1)

Reported SH2 binding enrichment at or above 0.6? KLFFIYTSGTT [SLC27A4_Y245_YF]
true (1)

Form field: SH2 binding enrichment at least 0.6? Entry: SEASFYKSLNL [NGEF_Y289_YF]
false (0)

Could you verify whether the entry ELTSVYGSRAR [SENP1_Y349_D350G] shows SH2 binding enrichment of no less than 0.6?
false (0)

I'd appreciate it if you could say whether STDDGYIDLQF [TMEM230_Y29] has SH2 binding enrichment at least equal to 0.6.
true (1)

Would you say ERQIRYLNHQL [CEP152_Y268] shows SH2 binding enrichment at minimum 0.6?
true (1)

Is SH2 binding enrichment for LLFRVYGLESL [INSR_Y94] at or above 0.6?
true (1)

Does SAEEDYMADAK [KCNT1_Y876] have a reported SH2 binding enrichment of at least 0.6?
true (1)

Dear colleague, could you confirm whether ADLAKYICENQ [ALB_Y287] has SH2 binding enrichment at or above 0.6?
true (1)

Does the reported SH2 binding enrichment for SHGKQYRVPSD [HHIPL2_Y395_R394Q] fall at or above the 0.6 mark?
false (0)

I'd appreciate it if you could say whether GFAIVYGTIIL [GPR179_Y460] has SH2 binding enrichment at least equal to 0.6.
false (0)

Reported SH2 binding enrichment at or above 0.6? SIKGKYVTALF [KCNH2_Y611_D609G_YF]
true (1)

In plain terms: is recorded SH2 binding enrichment at least 0.6 for QNTGFYFDLFG [PTPN11_Y62_D61Y_YF] ?
true (1)

Decide: is the reported value of SH2 binding enrichment for VECHPYFTQPK [AKR1D1_Y199] equal to or greater than 0.6?
true (1)

Check the entry THPFLYLSLEI [MLH1_Y293] : does SH2 binding enrichment equal or exceed 0.6?
true (1)

Exam item: decide whether the reported SH2 binding enrichment for LVMFIYAIFGM [SCN1A_Y1684] is at least 0.6.
true (1)

hey, is SH2 binding enrichment for this one >= 0.6? SIKDKYVTAVF [KCNH2_Y611_L615V_YF]
true (1)

Entry DSNPIYSQIWS [FCRL3_Y662] : is its SH2 binding enrichment no less than 0.6?
true (1)
